Kindly state pKi for each of the entries shown.
# TARGET_OF_ASSAY: ITK (Homo sapiens, UniProt Q08881)
# Construct: purchased Invitrogen PV3875
# Sequence (Q08881 whole entry): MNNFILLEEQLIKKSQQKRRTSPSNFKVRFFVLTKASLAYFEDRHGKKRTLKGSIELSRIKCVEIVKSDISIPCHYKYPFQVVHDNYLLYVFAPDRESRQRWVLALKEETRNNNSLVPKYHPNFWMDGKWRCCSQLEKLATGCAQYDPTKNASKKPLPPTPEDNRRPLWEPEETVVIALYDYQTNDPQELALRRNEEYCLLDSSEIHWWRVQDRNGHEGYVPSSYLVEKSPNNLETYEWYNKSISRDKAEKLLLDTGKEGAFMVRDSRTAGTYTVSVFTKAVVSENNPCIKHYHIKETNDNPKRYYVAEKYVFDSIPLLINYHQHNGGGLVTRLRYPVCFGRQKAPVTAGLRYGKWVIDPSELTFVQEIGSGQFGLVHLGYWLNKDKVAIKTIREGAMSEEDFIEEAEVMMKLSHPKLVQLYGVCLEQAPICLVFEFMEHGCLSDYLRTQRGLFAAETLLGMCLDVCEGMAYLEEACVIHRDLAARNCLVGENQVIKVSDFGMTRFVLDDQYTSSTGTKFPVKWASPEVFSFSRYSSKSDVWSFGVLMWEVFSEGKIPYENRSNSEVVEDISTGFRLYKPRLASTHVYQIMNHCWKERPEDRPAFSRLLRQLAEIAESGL
# ASSAY_METHOD_TEXT: ITK enzyme assay (Caliper or LCMS peptide phosphorylation)
# Assay type: biochemical
# EXPERIMENTAL_CONTEXT: purified ITK (Invitrogen PV3875), 20 μM ATP, Ki by Morrison's quadratic equation
Remember, pKi is on a log scale: it is -log10 of the molar concentration.

Request: May I ask what pKi has been recorded for CC1(C)CCc2c(C(=O)Nc3cnn(C(CO)c4cccnc4)c3)n[nH]c2C1 (single isomer, unassigned) [Example 81a] ?
Result: 7.77

Request: I'd like to know its pKi. The molecule in question is CC12Cc3[nH]nc(C(=O)Nc4cnn(C(c5ccccc5)C5CC[S+]([O-])CC5)c4)c3CC1C2 (single isomer, unassigned) [Example 120a]
Result: 10.00

Request: What does the record list as pKi for O=C(Nc1cnn(Cc2ccccc2)c1)c1n[nH]c2c1CC1(CCOC1)C2 (single isomer, unassigned) [Example 79b] ?
Result: 7.02

Request: Need pKi, item CN(CC(c1ccccc1)n1cc(NC(=O)c2n[nH]c3c2CCC(C)(C)C3)cn1)S(C)(=O)=O (single isomer, unassigned) [Example 61b]
Result: 9.00

Request: Any idea what pKi was measured for CC12Cc3[nH]nc(C(=O)Nc4cnn(Cc5ccccc5)c4)c3C1C2 (single isomer, unassigned) [Example 150b] ?
Result: 7.49

Request: Which pKi is reported for this molecule? CC(=O)N1CC(C(c2ccccc2)n2cc(NC(=O)c3n[nH]c4c3CCC(C)(C)C4)cn2)C1 (single isomer, unassigned) [Example 37b]
Result: 8.70

Request: Would you mind telling me what pKi value was observed for Cn1cc(C(c2ccccc2)n2cc(NC(=O)c3n[nH]c4c3C3CC3CC4)cn2)cn1 (single isomer, unassigned) [Example 35d] ?
Result: 6.72

Request: Consider the molecule shown here: CN(C)CCC(c1ccccc1)n1cc(NC(=O)c2n[nH]c3c2C2CC2CC3)cn1 (single isomer, unassigned) [Example 26d] What is its recorded pKi?
Result: 6.11

Request: Which value of pKi has been reported for CC1(C)CCc2c(C(=O)Nc3cnn(C(CCN)c4ccccc4)c3)n[nH]c2C1 (single isomer, unassigned) [Example 42a] in the records?
Result: 8.00

Request: Which pKi value is on record for CC(c1ccncc1)n1cc(NC(=O)c2n[nH]c3c2CCC(C)(C)C3)cn1 (single isomer, unassigned) [Example 107b] ?
Result: 7.85

Request: Which pKi reading was recorded for the molecule Cn1cc(C(c2ccccc2)n2cc(NC(=O)c3n[nH]c4c3CC3CC3C4)cn2)cn1 (single isomer, unassigned) [Example 27d] ?
Result: 7.02

Request: Using the record for O=C(Nc1cnn(Cc2ccccc2)c1)c1n[nH]c2c1CCC1(CCCO1)C2 (single isomer, unassigned) [Example 50a] , report its pKi.
Result: 6.59
